test_target: human STING (hSTING) (Homo sapiens, UniProt Q86WV6)
Sequence (Q86WV6 whole entry H232R): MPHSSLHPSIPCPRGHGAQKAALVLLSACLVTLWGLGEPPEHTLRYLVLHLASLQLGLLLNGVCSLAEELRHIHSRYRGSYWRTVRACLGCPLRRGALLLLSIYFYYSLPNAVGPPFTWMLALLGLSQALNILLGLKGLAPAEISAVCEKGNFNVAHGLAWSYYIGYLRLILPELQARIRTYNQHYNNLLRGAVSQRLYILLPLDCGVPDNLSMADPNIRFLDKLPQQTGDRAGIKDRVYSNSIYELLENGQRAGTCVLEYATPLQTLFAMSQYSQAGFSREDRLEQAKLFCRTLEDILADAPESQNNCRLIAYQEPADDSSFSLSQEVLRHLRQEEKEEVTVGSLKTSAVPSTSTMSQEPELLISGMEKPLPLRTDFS
test_description: Inhibition test of intracellular human STING (hSTING) pathway using SEAP reporter cells (HEK-Blue ISG), stimulation with Compound 3
test_parameters: Compound 3 10 nM stimulation, 21 hours, read-out: hSTING inhibitory activity
Counter-ions that a name gives are not always drawn.
Let's look at some compounds and their measured IC50.

Query: Sample Brc1cccc2c(Nc3nc4ccccc4[nH]3)c[nH]c12 — what was its IC50?
Result: ≥ 10 µM

Query: Let us now turn to FC(F)(F)c1cnc2[nH]cc(Nc3nc4cc(Oc5ccccc5)ccc4[nH]3)c2c1 [Embodiment 74, formate]
Result: 1 to 10 µM

---
Query: Sample COCCn1c(Nc2c[nH]c3ccc(Cl)nc23)nc2cc(C(F)(F)F)ccc21 — what was its IC50?
Result: ≥ 10 µM

Query: Let us now turn to C[Si](C)(C)C#Cc1ccc2[nH]cc(Nc3nc4cc(Oc5ccccc5)ccc4[nH]3)c2n1
Result: 1 to 10 µM

Query: Let us now turn to Cn1c(Nc2c[nH]c3ccc(Cl)nc23)nc2ccc(C(F)(F)F)cc21
Result: ≥ 10 µM

---

test_target: human STING (hSTING) (Homo sapiens, UniProt Q86WV6)
Construct: host or cells: HEK-Blue ISG cells (HEK293-derived SEAP reporter line)
test_description: Inhibition test of intracellular human STING (hSTING) pathway using SEAP reporter cells (HEK-Blue ISG), stimulation with Compound 3
Format: cell-based
Design: scale not given here
test_parameters: Compound 3 10 nM stimulation, 21 hours
Structures can show the parent of a compound that is named as a salt.
property_name: hSTING inhibitory activity

Query: Sample Clc1ccc2[nH]cc(Nc3nc4cc(-c5ccncc5)ccc4[nH]3)c2n1 — what was its hSTING inhibitory activity?
Result: * *

Query: Let us now turn to CCn1c(Nc2c[nH]c3ccc(Cl)cc23)nc2cc(C(F)(F)F)cc(F)c21
Result: * * *

Query: Let us now turn to Fc1cnc2[nH]cc(Nc3nc4cc(Oc5ccccc5)ccc4[nH]3)c2c1 [Embodiment 72, formate]
Result: * *

Query: Let us now turn to CN(c1ccccc1)S(=O)(=O)c1ccc2[nH]c(Nc3c[nH]c4ccc(Cl)nc34)nc2c1
Result: * *

---
Query: Sample FC(F)(F)c1ccc2[nH]c(Nc3c[nH]c4ccc(Br)nc34)nc2c1 — what was its hSTING inhibitory activity?
Result: * *

Query: Let us now turn to Clc1ccc2[nH]cc(Nc3nc4cc(OC5CCCCC5)ccc4[nH]3)c2n1 [Embodiment 120, formate]
Result: * * *

Query: Let us now turn to Cc1ccc2[nH]c(Nc3c[nH]c4ccc(Cl)nc34)nc2c1
Result: * * *

---

test_target: human STING (hSTING) (Homo sapiens)
Construct: host or cells: HEK-Blue ISG cells (HEK293-derived SEAP reporter line)
test_description: Inhibition test of intracellular human STING (hSTING) pathway using SEAP reporter cells (HEK-Blue ISG), stimulation with Compound 3
Format: cell-based
Parameters: scale not given here
test_parameters: Compound 3 10 nM stimulation, 21 hours
Structures can show the parent of a compound that is named as a salt.
property_name: hSTING inhibitory activity

Completed entries (count: 5):
Query: Notebook entry, human STING (hSTING) (Homo sapiens) assay: hSTING inhibitory activity of Fc1cc(C2CCOCC2)cc2nc(Nc3c[nH]c4ccc(Cl)nc34)[nH]c12 = ?
Result: * *

Query: Let us now turn to Cn1c(Nc2c[nH]c3ccc(Cl)cc23)nc2cc(OC(F)(F)F)ccc21
Result: * * *

Query: Let us now turn to COc1cc2c(cc1C(F)(F)F)nc(Nc1c[nH]c3ccc(Cl)cc13)n2C
Result: * *

Query: Let us now turn to Cc1ccc2[nH]cc(Nc3nc4cc(Oc5ccccc5)ccc4[nH]3)c2n1
Result: * *

Query: Let us now turn to Clc1ccc2[nH]cc(Nc3nc4cc(C#CC5CC5)ccc4[nH]3)c2n1
Result: * *

---
Query: Notebook entry, human STING (hSTING) (Homo sapiens) assay: hSTING inhibitory activity of Clc1cnc2[nH]cc(Nc3nc4cc(Oc5ccccc5)ccc4[nH]3)c2c1 [Embodiment 73, formate] = ?
Result: * * *

Query: Let us now turn to Cn1c(Nc2c[nH]c3ccc(Cl)nc23)nc2cc(Oc3ccccc3)ccc21
Result: * *

Query: Let us now turn to Cn1c(Nc2c[nH]c3ccc(Cl)cc23)nc2cc(C(F)(F)F)cc(F)c21
Result: * * *

Query: Let us now turn to Brc1ccc2[nH]cc(Nc3nc4c(Br)cccc4[nH]3)c2c1
Result: * *

Query: Let us now turn to Clc1ccc2[nH]cc(Nc3nc4cc(Br)ccc4[nH]3)c2n1 [Embodiment 95, formate]
Result: * *

Query: Let us now turn to Clc1ccc2[nH]cc(Nc3nc4cc(C5CCOCC5)ccc4[nH]3)c2n1
Result: * *

Query: Let us now turn to CN(C)n1c(Nc2c[nH]c3ccc(Cl)cc23)nc2cc(C(F)(F)F)c(F)cc21
Result: * * *

Query: Let us now turn to Fc1ccc2[nH]c(Nc3c[nH]c4ccc(Br)cc34)nc2c1
Result: * * *

Query: Let us now turn to CC=C(Cl)c1ccc2[nH]c(Nc3c[nH]c4ccc(Cl)nc34)nc2c1
Result: * * *

Query: Let us now turn to CC#Cc1ccc2[nH]c(Nc3c[nH]c4ccc(Cl)nc34)nc2c1
Result: * *

Query: Let us now turn to CCn1c(Nc2c[nH]c3ccc(Cl)cc23)nc2cc(OC(F)(F)F)ccc21
Result: * * *

Query: Let us now turn to OCCCn1c(Nc2c[nH]c3ccc(Cl)cc23)nc2cc(C(F)(F)F)ccc21
Result: * *

Query: Let us now turn to OCCn1c(Nc2c[nH]c3ccc(Cl)cc23)nc2cc(C(F)(F)F)cc(F)c21
Result: * * *

Query: Let us now turn to C=Cc1ccc2[nH]cc(Nc3nc4ccc(Oc5ccc(F)cc5)cc4n3C3CC3)c2n1
Result: * *

Query: Let us now turn to Clc1ccc2[nH]cc(Nc3nc4cc(Oc5ccccc5)ccc4n3C3CC3)c2n1
Result: * * *

Query: Let us now turn to Nn1c(Nc2c[nH]c3ccc(Cl)cc23)nc2cc(C(F)(F)F)cc(F)c21
Result: * * *

Query: Let us now turn to CC(C)n1c(Nc2c[nH]c3ccc(Cl)cc23)nc2cc(C(F)(F)F)ccc21
Result: * * *

Query: Let us now turn to CC#CCn1c(Nc2c[nH]c3ccc(Cl)cc23)nc2cc(C(F)(F)F)ccc21
Result: * *

Query: Let us now turn to C=CCn1c(Nc2c[nH]c3ccc(Cl)cc23)nc2cc(C(F)(F)F)ccc21
Result: * * *

---

test_target: human STING (hSTING) (Homo sapiens, UniProt Q86WV6)
Construct: host or cells: HEK-Blue ISG cells (HEK293-derived SEAP reporter line)
test_description: Inhibition test of intracellular human STING (hSTING) pathway using SEAP reporter cells (HEK-Blue ISG), stimulation with Compound 3
Assay type: cell-based
Design: scale not given here
test_parameters: Compound 3 10 nM stimulation, 21 hours
property_name: hSTING inhibitory activity

Completed entries (count: 6):
Query: Notebook entry, human STING (hSTING) (Homo sapiens, UniProt Q86WV6) assay: hSTING inhibitory activity of FC(F)(F)c1ccc2c(c1)nc(Nc1c[nH]c3ccc(Cl)cc13)n2N1CCCC1 = ?
Result: * *

Query: Let us now turn to Cc1ccnc2c(Nc3nc4cc(Oc5ccccc5)ccc4[nH]3)c[nH]c12
Result: * *

Query: Let us now turn to Cn1nccc1Oc1ccc2[nH]c(Nc3c[nH]c4ccc(Br)nc34)nc2c1
Result: * *

Query: Let us now turn to COC(=O)c1ccc2[nH]cc(Nc3nc4cc(Oc5ccccc5)ccc4[nH]3)c2c1
Result: * *

Query: Let us now turn to Cc1cc(C)c2nc(Nc3c[nH]c4ccc(Cl)nc34)[nH]c2c1
Result: * *

Query: Let us now turn to C1=C(c2ccnc3c(Nc4nc5cc(Oc6ccccc6)ccc5[nH]4)c[nH]c23)CCCC1
Result: * *

---
Query: Notebook entry, human STING (hSTING) (Homo sapiens, UniProt Q86WV6) assay: hSTING inhibitory activity of Brc1ccc2[nH]cc(Nc3nc4cc(Oc5cccnc5)ccc4[nH]3)c2c1 = ?
Result: * *

Query: Let us now turn to COC(=O)c1ccc2[nH]c(Nc3c[nH]c4ccc(Br)nc34)nc2c1
Result: * *

Query: Let us now turn to Cn1c(Nc2c[nH]c3ccc(Cl)nc23)nc2cc(C(F)(F)F)ccc21
Result: * *

Query: Let us now turn to C=C(C)c1ccnc2c(Nc3nc4cc(Oc5ccccc5)ccc4[nH]3)c[nH]c12
Result: * *

Query: Let us now turn to Clc1ccc2[nH]c(Nc3c[nH]c4ccc(Br)cc34)nc2c1
Result: * * *
